Measured On: T1, monkey NPR1 extracellular domain expressed with a C-terminal myc-myc-hexahistidine (mfNPR1-MMH) (monkey, UniProt P16066 33-473 (human entry))
T1 construct: also called monomeric monkey NPR1
T1 chain: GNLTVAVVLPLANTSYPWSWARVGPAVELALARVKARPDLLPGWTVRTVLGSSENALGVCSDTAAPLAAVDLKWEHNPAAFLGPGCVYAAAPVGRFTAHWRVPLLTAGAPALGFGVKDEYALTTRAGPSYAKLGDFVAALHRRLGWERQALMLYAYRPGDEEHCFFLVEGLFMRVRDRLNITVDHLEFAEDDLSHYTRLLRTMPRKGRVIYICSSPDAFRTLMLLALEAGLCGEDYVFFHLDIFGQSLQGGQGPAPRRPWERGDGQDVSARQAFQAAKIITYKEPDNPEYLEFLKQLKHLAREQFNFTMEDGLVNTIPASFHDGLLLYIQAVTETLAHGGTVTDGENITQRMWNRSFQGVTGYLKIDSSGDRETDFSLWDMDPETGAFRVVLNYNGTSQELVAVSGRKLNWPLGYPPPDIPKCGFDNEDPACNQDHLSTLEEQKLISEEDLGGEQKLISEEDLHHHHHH
Procedure Details: SPR, mAb captured, 25 C
Quantity Name: 100 nM Ag Bound (RU)

1) mAb25502 (antibody, V domains shown) VH: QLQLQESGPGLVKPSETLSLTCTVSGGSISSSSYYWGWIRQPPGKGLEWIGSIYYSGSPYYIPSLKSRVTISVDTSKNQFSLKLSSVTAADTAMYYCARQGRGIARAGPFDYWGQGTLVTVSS VL: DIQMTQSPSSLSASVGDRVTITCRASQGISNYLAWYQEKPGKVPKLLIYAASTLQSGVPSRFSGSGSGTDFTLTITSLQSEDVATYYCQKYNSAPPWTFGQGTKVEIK = 3
2) mAb22810 (antibody, V domains shown) VH: EVQLVESGGGLVKPGGSLRLSCVVSGFTFRIYTMNWVRQAPGKGLEWVASISSSSSFINYADSLKGRFTISRDNAQNSLYLQMNSLRAEDTAIYYCARAAGNDVLPGRMDVWGQGTSVTVSS VL: EIVLTQSPGTLSLSPGERATLSCRASQSVSSNYLAWYQQKPGQVPSLLIYGASSRATGIPDRFSGSGSGTDFTLTITRLEPEDFAVYYCQQYGISPWTFGQGTKVEIK = 1
